# targetDesc: Heat shock protein 90 (Hsp90), purified, native (UniProt P07900 1-732)
# experimentalDetails: pull-down
testReadout: pIC50
Convention used: pIC50 is expressed as -log10 of the molar concentration.

Exercise: For FLVLL (head-to-tail cyclised macrocycle (cyclic pentapeptide)) [Sansalvamide A-amide (San A-amide), compound 1, macrocycle Phe-Leu-Val-Leu-Leu] , what is its reported pIC50?
Key: 4.71
